Target: Follistatin-related protein 3 (Homo sapiens) (UniProt O95633)
Sequence (O95633 whole entry, looked up): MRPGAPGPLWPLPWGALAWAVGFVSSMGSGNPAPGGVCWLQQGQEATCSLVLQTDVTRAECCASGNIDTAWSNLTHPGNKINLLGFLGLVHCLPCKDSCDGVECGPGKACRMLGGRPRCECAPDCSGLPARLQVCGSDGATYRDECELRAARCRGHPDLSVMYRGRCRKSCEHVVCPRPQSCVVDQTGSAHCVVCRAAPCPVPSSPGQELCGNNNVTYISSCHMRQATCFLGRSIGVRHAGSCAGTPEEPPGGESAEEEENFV
Test: FSTL3 binders on small-molecule microarrays, primary screen, biochemical, small-molecule microarray, 635 nm fluorescence (AID 1105);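 also: score merges emission near 667 nm and signal to noise per printed spot across three slides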
Settings: FSTL3 binding, higher = more signal
Metric name: composite z-score
Answer as a number with no unit attached.

Fill in: Follistatin-related protein 3 (Homo sapiens) (UniProt O95633) composite z-score for COCCOC(=O)N1C(=O)[C@@]2(c3cc(C#CCC(C(=O)OC)C(=O)OC)ccc31)[C@H](c1ccc(O)cc1)N1[C@H](c3ccccc3)[C@H](c3ccccc3)OC(=O)[C@H]1[C@@H]2C(N)=O = 0.825

Fill in: Follistatin-related protein 3 (Homo sapiens) (UniProt O95633) composite z-score for COC(=O)c1ccc(C(O)C2C=CC3C(=O)N(c4ccccc4)C(=O)C3N2Nc2ccc(C#N)cc2)o1 (stereo not drawn) = 0.311

Fill in: Follistatin-related protein 3 (Homo sapiens) (UniProt O95633) composite z-score for CS(=O)(=O)CCOC(=O)C1=CC(CCCO)=CC(c2cccs2)N(Cc2cc3c(cc2Br)OCO3)C=C1C(=O)OCCS(C)(=O)=O (stereo not drawn) = 1.22
